Let's look at some molecules and their measured EC50.
- System: NF-κB pathway in THP-1 dual cells
- measurement_protocol: THP-1 Dual Reporter Assay, NF-κB pathway (SEAP reporter)
- Format: cell-based
- cond: Homo sapiens, THP1-Dual, 18 h of stimulation, absorbance at 630 nm, read-out: THP1 Dual EC50 (μM) NFkB

- chem_smiles: "Cc1ccc2c(=O)c(CN(CCCc3cccnc3)Cc3ccncc3)c(C)oc2c1C"
  target_desc: "NF-κB pathway in THP-1 dual cells"
  value_kind: "EC50"
  measured: "≤ 10 µM"
- chem_smiles: "O=c1c(CN(CCCn2ccnc2)Cc2ccncc2)coc2c1ccc1ccccc12"
  target_desc: "NF-κB pathway in THP-1 dual cells"
  value_kind: "EC50"
  measured: "≤ 10 µM"
- chem_smiles: "COc1ccc(CCCN(Cc2ccncc2)Cc2c(C)oc3c(C)c(C)ccc3c2=O)cn1"
  target_desc: "NF-κB pathway in THP-1 dual cells"
  value_kind: "EC50"
  measured: "≤ 10 µM"
- chem_smiles: "O=c1c(CN(CCCn2ccnc2)Cc2ccncc2)coc2cc(OCc3ccccc3)ccc12"
  target_desc: "NF-κB pathway in THP-1 dual cells"
  value_kind: "EC50"
  measured: "≤ 10 µM"
- chem_smiles: "COc1cc(CN(CCCn2cnc3ccccc32)Cc2c(C)oc3c(ccc4ccccc43)c2=O)ccn1"
  target_desc: "NF-κB pathway in THP-1 dual cells"
  value_kind: "EC50"
  measured: "≥ 20 µM"
- chem_smiles: "O=c1c(CN(CCCn2cnc3ccccc32)Cc2ccncc2F)coc2c1ccc1ccccc12"
  target_desc: "NF-κB pathway in THP-1 dual cells"
  value_kind: "EC50"
  measured: "≥ 20 µM"
- chem_smiles: "O=c1c(CN(CCCn2cccc2)Cc2ccncc2)coc2ccccc12"
  target_desc: "NF-κB pathway in THP-1 dual cells"
  value_kind: "EC50"
  measured: "≥ 20 µM"
- chem_smiles: "COc1cc(CN(CCCn2cnc3cncnc32)Cc2cn(C)c3ccccc3c2=O)ccn1"
  target_desc: "NF-κB pathway in THP-1 dual cells"
  value_kind: "EC50"
  measured: "≤ 10 µM"

Ask: Any idea what its EC50 is? The molecule is Cc1ccc2c(=O)c(CN(CCCn3ccnn3)Cc3ccncc3)coc2c1C
Reply: 10 to 20 µM

Ask: Any idea what its EC50 is? The molecule is Cc1ccc2c(=O)c(CN(CCCn3cccc3)Cc3ccncc3)coc2c1C
Reply: ≥ 20 µM

Ask: Any idea what its EC50 is? The molecule is COc1cc(CN(CCCn2cnc3ccccc32)Cc2cnc3ccccn3c2=O)ccn1
Reply: ≥ 20 µM

Ask: Any idea what its EC50 is? The molecule is Cc1oc2cc(Br)c(F)cc2c(=O)c1CN(CCCn1cnc2cncnc21)Cc1ccncc1
Reply: ≤ 10 µM

Ask: Any idea what its EC50 is? The molecule is COc1cc2ncn(CCCN(Cc3ccncc3)Cc3coc4c(ccc5ccccc54)c3=O)c2cc1OC
Reply: ≤ 10 µM

Ask: Any idea what its EC50 is? The molecule is Cc1oc2ccccc2c(=O)c1CN(CCCn1ccnc1)Cc1ccncc1
Reply: 10 to 20 µM

Ask: Any idea what its EC50 is? The molecule is COc1cc(CN(CCCn2ccnc2)Cc2coc3ccccc3c2=O)ccn1
Reply: ≥ 20 µM

Ask: Any idea what its EC50 is? The molecule is O=c1c(CN(CCCn2ccnc2)Cc2ccncc2)coc2c(F)cc(F)cc12
Reply: ≥ 20 µM
